IC50 for assorted compounds
Test system: HCV replicon genotype 1a
assayProcedure: HCV replicon assay, genotype 1a (cell ELISA for NS3/4A)
Type: cell-based
conditionParameters: Hepatitis C virus, 96 h, read-out: 1a IC50 (nM)
A number alone suffices; assume nM.

- testSmiles: "CNC(=O)c1c(-c2ccc(F)cc2)oc2cc(N(C)S(C)(=O)=O)c(-c3cc(N4Cc5cccc(F)c5C4)ncc3OC)cc12"
  u: "nM"
  IC50: 54
- testSmiles: "CNC(=O)c1c(-c2ccc(F)cc2)oc2cc(N(C)S(C)(=O)=O)c(-c3cc(-c4cc5ccccc5[nH]4)c(OC)cn3)cc12"
  u: "nM"
  IC50: 8.4
- testSmiles: "CNC(=O)c1c(-c2ccc(F)cc2)oc2cc(N(C)S(C)(=O)=O)c(-c3c[nH]c(=O)c(-c4nc5c(F)cccc5o4)c3)cc12"
  u: "nM"
  IC50: 0.8
- testSmiles: "CNC(=O)c1c(-c2ccc(F)cc2)oc2cc(N(C)S(C)(=O)=O)c(-c3ccc(O)c(-c4cc5ccccn5n4)n3)cc12"
  u: "nM"
  IC50: 1450
- testSmiles: "CNC(=O)c1c(-c2ccc(F)cc2)oc2cc(N(C)S(C)(=O)=O)c(-c3cnnc(-c4cc5c(C#N)cccc5[nH]4)c3)cc12"
  u: "nM"
  IC50: 0.7

Problem: Please report the recorded IC50 for CNC(=O)c1c(-c2ccc(F)cc2)oc2cc(N(C)S(C)(=O)=O)c(-c3cncc(-c4cc5cccc(F)c5[nH]4)n3)cc12 .
Result: 0.8

* * *

Tested on: HCV replicon genotype 1a
assayProcedure: HCV replicon assay, genotype 1a (cell ELISA for NS3/4A)
Type: cell-based
conditionParameters: Hepatitis C virus, 96 h, read-out: 1a IC50 (nM)
outcomeMeasure: IC50
State the result as a value with its unit after it.

Examples with their reported IC50 follow.
- compound: "CNC(=O)c1c(-c2ccc(F)cc2)nn2cc(N(C)S(C)(=O)=O)c(-c3nccc(-c4cc5ccccc5[nH]4)n3)cc12 [Compound 210]"
  IC50: "11 nM"
- compound: "CNC(=O)c1c(-c2ccc(F)cc2)oc2cc(N(C)S(C)(=O)=O)c(-c3cncc(-c4nc5c(s4)CCCC5)c3)cc12 [Compound 82]"
  IC50: "0.8 nM"

Problem: Please report the recorded IC50 for CNC(=O)c1c(-c2ccc(F)cc2)oc2cc(N(C)S(C)(=O)=O)c(-c3cnnc(-c4cc5c(F)cccc5n4CCOC)c3)cc12 [Compound 279] .
Result: 2.5 nM

* * *

IC50 for assorted molecules
System: HCV replicon genotype 1a
assayProcedure: HCV replicon assay, genotype 1a (cell ELISA for NS3/4A)
Assay type: cell-based
conditionParameters: Hepatitis C virus, 96 h, read-out: 1a IC50 (nM)
A number alone suffices; assume nM.

- testSmiles: "CNC(=O)c1c(-c2ccc(F)cc2)oc2cc(N(C)S(C)(=O)=O)c(-c3cc(-c4cc5c(F)cccc5[nH]4)cnn3)cc12"
  u: "nM"
  IC50: 3.2
- testSmiles: "CNC(=O)c1c(-c2ccc(F)cc2)oc2ccc(-c3cc(-c4cc5c(F)cccc5[nH]4)nnc3C)cc12"
  u: "nM"
  IC50: 42
- testSmiles: "CNC(=O)c1c(-c2ccc(F)cc2)oc2cc(N(C)S(C)(=O)=O)c(-c3cnc(OC)c(-c4cc5c(C#N)cccc5[nH]4)n3)cc12"
  u: "nM"
  IC50: 4.7

Problem: Give HCV replicon genotype 1a IC50 for CNC(=O)c1c(-c2ccc(F)cc2)oc2cc(N(C)S(C)(=O)=O)c(-c3cc(-c4cc5c(C#N)cccc5[nH]4)nnc3C)cc12
Result: 3.2

* * *

System: HCV replicon genotype 1a
assayProcedure: HCV replicon assay, genotype 1a (cell ELISA for NS3/4A)
Assay type: cell-based
conditionParameters: Hepatitis C virus, 96 h, read-out: 1a IC50 (nM)
outcomeMeasure: IC50 (nM)
A number alone suffices; assume nM.

Examples with their reported IC50 follow.
- testSmiles: "CNC(=O)c1c(-c2ccc(F)cc2)oc2cc(N(C)S(C)(=O)=O)c(-c3ccc(OC)c(-c4cc5ccccn5n4)n3)cc12"
  outcomeMeasure: "IC50"
  result: 214
- testSmiles: "CNC(=O)c1c(-c2ccc(F)cc2)oc2cc(N(C)S(C)(=O)=O)c(-c3cncc(-c4ccc5cc(C(F)(F)F)cnc5n4)c3)cc12"
  outcomeMeasure: "IC50"
  result: 5.4
- testSmiles: "CNC(=O)c1c(-c2ccc(F)cc2)oc2cc(N(C)S(C)(=O)=O)c(-c3ccc(OC)c(-c4cc5cccc(C#N)c5[nH]4)n3)cc12"
  outcomeMeasure: "IC50"
  result: 27
- testSmiles: "CNC(=O)c1c(-c2ccc(F)cc2)oc2cc(N(C)S(C)(=O)=O)c(-c3cnnc(-c4cc5c(C#N)cccc5n4C)c3)cc12"
  outcomeMeasure: "IC50"
  result: 0.3
- testSmiles: "CNC(=O)c1c(-c2ccc(F)cc2)oc2cc(N(C)S(C)(=O)=O)c(-c3cc(-c4cc5c(F)cccc5[nH]4)ncc3OC)cc12"
  outcomeMeasure: "IC50"
  result: 131

Alright, here's another compound for you.
Problem: Please report the recorded IC50 for CNC(=O)c1c(-c2ccc(F)cc2)oc2cc(N(C)S(C)(=O)=O)c(-c3ccnc(-c4cc5c(C#N)cccc5[nH]4)c3)cc12 .
Result: 0.1

* * *

IC50 for assorted molecules
System: HCV replicon genotype 1a
assayProcedure: HCV replicon assay, genotype 1a (cell ELISA for NS3/4A)
Format: cell-based
conditionParameters: Hepatitis C virus, 96 h, read-out: 1a IC50 (nM)
Experimental: Measurement of inhibition by compounds was performed using the HCV replicon system. Several different replicons encoding different HCV genotypes or mutations were used. […] Stable neomycin phosphotransferase encoding replicons-harboring cell lines were used, so all cell lines were maintained under G418 selection prior to the assay. Potency was determined using a cell ELISA assay with an antibody to the replicons encoded NS3/4a protease. […]
A number alone suffices; assume nM.

- testSmiles: "CNC(=O)c1c(-c2ccc(F)cc2)oc2cc(N(C)S(C)(=O)=O)c(-c3ccc(-c4nc5c(F)cccc5o4)s3)cc12"
  system: "HCV replicon genotype 1a"
  outcomeMeasure: "IC50"
  result: 0.9
- testSmiles: "CNC(=O)c1c(-c2ccc(F)cc2)oc2cc(N(C)S(C)(=O)=O)c(-c3nc(-c4cc5ccccc5[nH]4)c(OC)cc3OC)cc12"
  system: "HCV replicon genotype 1a"
  outcomeMeasure: "IC50"
  result: 99
- testSmiles: "CNC(=O)c1c(-c2ccc(F)cc2)oc2cc(N(C)S(C)(=O)=O)c(-c3cnc(OC)c(-c4nc5c(o4)CCCC5(F)F)c3)cc12"
  system: "HCV replicon genotype 1a"
  outcomeMeasure: "IC50"
  result: 0.8
- testSmiles: "CNC(=O)c1c(-c2ccc(F)cc2)oc2cc(N(CCCF)S(C)(=O)=O)c(-c3cncc(-c4cc5ccccc5[nH]4)c3)cc12"
  system: "HCV replicon genotype 1a"
  outcomeMeasure: "IC50"
  result: 2.7

Problem: Please report the recorded IC50 for CNC(=O)c1c(-c2ccc(F)cc2)oc2cc(N(C)S(C)(=O)=O)c(-c3cnnc(-c4cc5c(F)cccc5n4CCO)c3)cc12 .
Result: 7.4

Problem: Then this molecule: CNC(=O)c1c(-c2ccc(F)cc2)oc2cc(N(C)S(C)(=O)=O)c(-c3cc(-c4cc5c(F)cccc5n4CCOC)cnn3)cc12
Result: 37

Problem: Then this molecule: CNC(=O)c1c(-c2ccc(F)cc2)oc2cc(N(C)S(C)(=O)=O)c(-c3cc(-c4cc5c(F)cccc5[nH]4)ncc3-c3cc4c(F)cccc4[nH]3)cc12
Result: 9.8

* * *

Test system: HCV replicon genotype 1a
assayProcedure: HCV replicon assay, genotype 1a (cell ELISA for NS3/4A)
Format: cell-based
conditionParameters: Hepatitis C virus, 96 h, read-out: 1a IC50 (nM)
outcomeMeasure: log10 IC50 (log10 of the value in nM)
Base-10 log of IC50, unit nM.

- molecule: "CNC(=O)c1c(-c2ccc(F)cc2)oc2cc(N(C)S(C)(=O)=O)c(-c3cnnc(-c4[nH]c5ccccc5c4C)c3)cc12 [Compound 288]"
  result: 1.88
- molecule: "CNC(=O)c1c(-c2ccc(F)cc2)oc2cc(N(C)S(C)(=O)=O)c(-c3cc(-c4cc5ccccc5[nH]4)ncn3)cc12 [Compound 108]"
  result: -0.15

Problem: Please report the recorded log10 IC50 for CNC(=O)c1c(-c2ccc(F)cc2)oc2cc(N(C)S(C)(=O)=O)c(-c3cnnc(-c4nc5ccccc5s4)c3)cc12 [Compound 287] .
Result: 0.51

Problem: Then this molecule: CNC(=O)c1c(-c2ccc(F)cc2)oc2cc(N(C)S(C)(=O)=O)c(-c3nc(-c4cc5c(F)cccc5[nH]4)ns3)cc12 [Compound 258]
Result: 0.41

Problem: Then this molecule: CNC(=O)c1c(-c2ccc(F)cc2)oc2cc(N(C)S(C)(=O)=O)c(-c3cc(-c4cc5c(F)cccc5[nH]4)nnc3C)cc12 [Compound 268]
Result: 0.72

Problem: Then this molecule: CNC(=O)c1c(-c2ccc(F)cc2)oc2cc(N(C)S(C)(=O)=O)c(-c3ccc(OC)c(-c4cc5ncccc5[nH]4)n3)cc12 [Compound 211]
Result: 0.94

Problem: Then this molecule: CNC(=O)c1c(-c2ccc(F)cc2)oc2cc(N(C)S(C)(=O)=O)c(-c3cnc(OC)c(-c4nc5c(F)cccc5o4)c3)cc12 [Compound 1]
Result: -0.05
